- TESTED SYSTEM: Estrogen receptor beta (Homo sapiens)
- Sequence (Q92731 whole entry): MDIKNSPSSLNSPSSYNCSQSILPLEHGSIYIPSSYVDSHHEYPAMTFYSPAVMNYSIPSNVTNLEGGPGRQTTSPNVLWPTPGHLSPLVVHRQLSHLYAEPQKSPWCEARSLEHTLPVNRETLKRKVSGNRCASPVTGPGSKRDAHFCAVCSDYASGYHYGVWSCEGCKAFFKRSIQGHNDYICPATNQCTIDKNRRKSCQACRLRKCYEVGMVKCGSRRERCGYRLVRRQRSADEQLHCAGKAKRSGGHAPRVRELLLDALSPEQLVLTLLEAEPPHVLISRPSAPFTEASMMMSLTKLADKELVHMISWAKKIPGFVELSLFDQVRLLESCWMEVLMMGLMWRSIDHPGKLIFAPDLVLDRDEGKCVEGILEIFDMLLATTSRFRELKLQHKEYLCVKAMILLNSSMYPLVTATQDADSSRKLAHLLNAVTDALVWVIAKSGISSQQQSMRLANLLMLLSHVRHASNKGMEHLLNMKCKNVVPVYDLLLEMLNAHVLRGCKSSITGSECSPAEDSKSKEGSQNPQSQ
- PROTOCOL TEXT: Displacement of fluorescein-labeled estradiol from human recombinant ERbeta at 0.2 uM by fluorescence polarization assay
EXPERIMENTAL READOUT: Activity (%)

# annotated cases, reported Activity shown
SMILES TEXT	EXPERIMENTAL READOUT	REPORTED
CCCC[C@@H]1C[C@@]1(C)[C@@H](NS(=O)(=O)c1cccc2cccnc12)c1ccc(-c2ccccc2)cc1	Activity	-5
CCC/C=C(\CCC)[C@@H](NC(=O)c1cccs1)c1ccc(C(=O)OC)cc1	Activity	5
CCC/C=C(\CCC)[C@@H](NS(=O)(=O)c1ccc(C(Cl)(Cl)Cl)cc1)c1ccccc1	Activity	6
CCCC[C@@H]1C[C@H]1[C@@H](NC(=O)c1cccs1)c1ccc(-c2ccccc2)cc1	Activity	-1
CCC/C=C(\CCC)[C@@H](NS(=O)(=O)c1ccc(C(F)(F)F)cc1)c1ccccc1	Activity	-1

[a] CCC/C=C(\CCC)[C@@H](NC(=O)c1ccc(-c2ccccc2)cc1)c1ccc(C(=O)OC)cc1
[b] CCCC[C@@H]1C[C@H]1[C@@H](NS(=O)(=O)c1cccc2cccnc12)c1ccc(-c2ccccc2)cc1
[c] CCCC[C@@H]1C[C@H]1[C@@H](NC(=O)c1ccc(-c2ccccc2)cc1)c1ccc(-c2ccccc2)cc1
[d] CCC/C=C(\CCC)[C@@H](NC(=O)C(C)(C)C)c1ccc(C(=O)OC)cc1
*Q* Sort by Activity, descending. To answer, write out the labels according to the requested order.
*A* b, d, c, a

---

- TESTED SYSTEM: Estrogen receptor (Homo sapiens)
- Sequence (whole entry): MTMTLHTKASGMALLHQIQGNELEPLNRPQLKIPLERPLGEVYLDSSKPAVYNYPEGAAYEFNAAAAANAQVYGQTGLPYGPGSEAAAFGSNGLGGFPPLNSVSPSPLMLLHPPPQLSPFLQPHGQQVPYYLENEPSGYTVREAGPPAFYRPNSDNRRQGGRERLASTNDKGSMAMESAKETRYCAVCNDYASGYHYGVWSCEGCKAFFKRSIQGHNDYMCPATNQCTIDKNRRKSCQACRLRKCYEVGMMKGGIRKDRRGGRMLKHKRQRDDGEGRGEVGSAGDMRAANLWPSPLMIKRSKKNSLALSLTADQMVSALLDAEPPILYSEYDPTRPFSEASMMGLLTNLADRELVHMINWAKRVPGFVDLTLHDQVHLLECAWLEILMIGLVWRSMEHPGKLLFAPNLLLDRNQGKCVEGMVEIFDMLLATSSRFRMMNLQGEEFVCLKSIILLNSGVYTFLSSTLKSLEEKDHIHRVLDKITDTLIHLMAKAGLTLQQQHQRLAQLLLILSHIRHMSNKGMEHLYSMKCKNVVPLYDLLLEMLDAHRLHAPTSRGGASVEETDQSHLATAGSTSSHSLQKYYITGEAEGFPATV
- PROTOCOL TEXT: Displacement of fluorescein-labeled estradiol from human recombinant ERalpha at 1 uM by fluorescence polarization assay
EXPERIMENTAL READOUT: Activity (%)

# annotated cases, reported Activity shown
COMPOUND	REPORTED
CCC/C=C(\CCC)[C@@H](NC(=O)Cc1ccccc1)c1ccc(C(=O)OC)cc1	22
CCCC[C@@H]1C[C@H]1[C@@H](NC(=O)c1ccccc1)c1ccc(C(F)(F)F)cc1	33

[I] CCC/C=C(\CCC)[C@@H](NC(=O)c1ccco1)c1ccc(C(=O)OC)cc1
[II] CCC/C=C(\CCC)[C@@H](NP(=O)(c1ccccc1)c1ccccc1)c1ccc(-c2ccccc2)cc1
*Q* Short answer wanted: higher Activity, I or II ? API: response body contains the label of the selected item.
*A* I
(I: 58%, II: 11%)
